Catalogue of melting point values

Report melting point, nothing else, for this compound: O=C(NCCO)c1ccnc(-c2cccc3cc(Cc4cccc(C(F)(F)F)c4)sc23)c1 168 to 169 °C

Quote melting point reported for COc1ccc2cccc3c2c1C(CCNC(C)=O)CC3 (stereo not given) please. 98 °C

Complete the entry with melting point for Clc1ccc2c(c1)C(c1ccccc1)=NCc1nnc(CN3CCCCC3)n1-2 202 to 203 °C

Check the records and state melting point for Cn1c(COc2ccc(CC3SC(=O)NC3=O)cc2)nc2cncnc21 (stereo not given) 244 to 246 °C

Moving on to another compound below.
Indicate its recorded melting point; the compound in question is Cn1ncc(/C=C\C(=O)O)c1-c1ccc(F)cc1 205 to 206 °C
